Assay Target: SlPOR1 (Solanum lycopersicum)
Sequence (A0A3Q7HEX8 65-399): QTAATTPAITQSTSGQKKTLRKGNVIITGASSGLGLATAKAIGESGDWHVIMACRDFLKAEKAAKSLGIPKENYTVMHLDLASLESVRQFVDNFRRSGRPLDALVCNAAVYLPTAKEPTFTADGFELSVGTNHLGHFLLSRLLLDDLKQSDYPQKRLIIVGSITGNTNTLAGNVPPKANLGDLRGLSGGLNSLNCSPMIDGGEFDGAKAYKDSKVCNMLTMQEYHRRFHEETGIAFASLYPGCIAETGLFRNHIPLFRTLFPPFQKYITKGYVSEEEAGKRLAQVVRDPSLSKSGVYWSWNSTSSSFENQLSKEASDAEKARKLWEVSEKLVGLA
pKd: −log10 of the molar value.

- Item Smiles: "NC(=O)C1=CN([C@@H]2O[C@H](COP(=O)(O)OP(=O)(O)OC[C@H]3O[C@@H](n4cnc5c(N)ncnc54)[C@H](OP(=O)(O)O)[C@@H]3O)[C@@H](O)[C@H]2O)C=CC1"
  pKd: "> 5.00"

====

Assay Target: TaPOR1 (Triticum aestivum, UniProt Q41578)
Sequence (Q41578 75-388): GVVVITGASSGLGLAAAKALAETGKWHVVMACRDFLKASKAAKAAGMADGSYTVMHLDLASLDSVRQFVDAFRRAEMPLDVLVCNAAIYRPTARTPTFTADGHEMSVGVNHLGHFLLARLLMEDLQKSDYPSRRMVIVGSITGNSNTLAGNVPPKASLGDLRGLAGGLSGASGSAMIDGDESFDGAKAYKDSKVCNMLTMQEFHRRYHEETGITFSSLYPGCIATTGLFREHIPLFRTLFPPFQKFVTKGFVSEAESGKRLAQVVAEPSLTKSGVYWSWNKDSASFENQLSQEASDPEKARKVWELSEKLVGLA

- Molecule: "NC(=O)C1=CN([C@@H]2O[C@H](COP(=O)(O)OP(=O)(O)OC[C@H]3O[C@@H](n4cnc5c(N)ncnc54)[C@H](OP(=O)(O)O)[C@@H]3O)[C@@H](O)[C@H]2O)C=CC1 [NADPH]"
  Kd: "> 100 µM"

====

Assay Target: PinPOR (Pinus mugo)
Sequence (Q41202 67-400): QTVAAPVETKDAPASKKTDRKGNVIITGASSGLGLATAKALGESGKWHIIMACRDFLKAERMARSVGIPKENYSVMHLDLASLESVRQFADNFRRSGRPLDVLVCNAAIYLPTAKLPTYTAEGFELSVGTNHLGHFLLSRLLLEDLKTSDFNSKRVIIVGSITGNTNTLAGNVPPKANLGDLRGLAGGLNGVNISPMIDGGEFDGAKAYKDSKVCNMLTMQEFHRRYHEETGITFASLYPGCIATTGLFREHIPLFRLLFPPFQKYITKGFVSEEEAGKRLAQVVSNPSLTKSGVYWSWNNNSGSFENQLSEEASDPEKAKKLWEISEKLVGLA

- Item Smiles: "NC(=O)C1=CN([C@@H]2O[C@H](COP(=O)(O)OP(=O)(O)OC[C@H]3O[C@@H](n4cnc5c(N)ncnc54)[C@H](OP(=O)(O)O)[C@@H]3O)[C@@H](O)[C@H]2O)C=CC1"
  Kd: "< 10 µM"

====

Assay Target: SlPOR3 (Solanum lycopersicum, UniProt A0A3Q7J565)
Sequence (A0A3Q7J565 63-397): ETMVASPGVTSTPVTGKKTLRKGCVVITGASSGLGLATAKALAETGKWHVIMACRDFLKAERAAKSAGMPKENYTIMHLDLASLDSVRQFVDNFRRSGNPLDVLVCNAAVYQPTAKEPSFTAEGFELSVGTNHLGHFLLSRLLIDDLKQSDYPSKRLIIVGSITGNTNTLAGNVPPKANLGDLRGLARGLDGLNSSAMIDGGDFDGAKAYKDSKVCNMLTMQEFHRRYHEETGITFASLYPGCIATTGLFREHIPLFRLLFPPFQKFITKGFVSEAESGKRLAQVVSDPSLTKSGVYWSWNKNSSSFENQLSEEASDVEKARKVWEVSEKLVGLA
Quantity: Kd

- Item Smiles: "NC(=O)C1=CN([C@@H]2O[C@H](COP(=O)(O)OP(=O)(O)OC[C@H]3O[C@@H](n4cnc5c(N)ncnc54)[C@H](OP(=O)(O)O)[C@@H]3O)[C@@H](O)[C@H]2O)C=CC1"
  Quantity: "Kd"
  Result: "< 10 µM"
